system: SN12C renal; test: NCI tumour cell line growth inhibition, 48 h
Known TGI of a selection of compounds

Please review the following examples before continuing.
COMPOUND: Cc1ccc(C2=NN(C)COC2C(F)(F)F)cc1 (centres undefined)
TEST_TARGET: SN12C renal
TGI: > 100 µM
--
COMPOUND: CCOC(=O)C(NC(=O)NCc1ccc(F)cc1)C(F)(F)F (centres undefined)
TEST_TARGET: SN12C renal
TGI: > 100 µM
--
COMPOUND: CCC(C)C(NC(=O)C(CCCCN)NC(=O)C(NC(=O)C(CCC(N)=O)NC(=O)C(CCCNC(=N)N)NC(C)=O)C(C)CC)C(=O)NC(Cc1c[nH]c2ccccc12)C(=O)NC(Cc1ccccc1)C(=O)NC(CCC(N)=O)C(=O)NC(CC(N)=O)C(=O)NC(CCCNC(=N)N)C(=O)NC(CCCNC(=N)N)C(=O)NC(CCSC)C(=O)NC(CCCCN)C(=O)NC(Cc1c[nH]c2ccccc12)C(=O)NC(CCCCN)C(=O)NC(CCCCN)C(N)=O (centres undefined)
TEST_TARGET: SN12C renal
TGI: > 50 µM

TGI for COc1ccc2c(c1)/C(=C/c1c(-c3ccc(C)cc3)nc3sc(C)cn13)C(=O)N2 ? 31.9 µM
